B1: H2-Kb / B6 (parent)
chain 1: GDSVTQTEGLVTVTEGLPVKLNCTYQTTYLTIAFFWYVQYLNEAPQVLLKSSTDNKRTEHQGFHATLHKSSSSFHLQKSSAQLSDSALYYCALSLGNAGAKLTFGGGTRLTVRP
chain 2: EAAVTQSPRNKVTVTGGNVTLSCRQTNSHNYMYWYRQDTGHGLRLIHYSYGAGNLQIGDVPDGYKATRTTQEDFFLLLELASPSQTSLYFCASSDGMISSSYEQYFGPGTRLTVL
chain 3: not shown
chain 4: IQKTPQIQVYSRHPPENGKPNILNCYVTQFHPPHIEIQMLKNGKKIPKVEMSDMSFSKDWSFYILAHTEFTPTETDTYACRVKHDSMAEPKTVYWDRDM
chain 5: SIINFEKL

variants of: B1; assay: % of reporter cells activated (NFAT-GFP), raw; design: unit not given here; conditions: with B6; also: test concentration or dose not given here

[
  {
    "mutant": "chain 5 L8P",
    "ratio to parent": 0.671
  },
  {
    "mutant": "chain 5 F5Q",
    "ratio to parent": 1.07
  },
  {
    "mutant": "chain 5 I2T",
    "ratio to parent": 1.23
  },
  {
    "mutant": "chain 5 F5K",
    "ratio to parent": 1.28
  },
  {
    "mutant": "chain 5 I3H",
    "ratio to parent": 1.01
  },
  {
    "mutant": "chain 5 F5M",
    "ratio to parent": 1
  },
  {
    "mutant": "chain 5 I3V",
    "ratio to parent": 0.886
  },
  {
    "mutant": "chain 5 I2K",
    "ratio to parent": 1.08
  },
  {
    "mutant": "chain 5 F5I",
    "ratio to parent": 1.09
  },
  {
    "mutant": "chain 5 F5V",
    "ratio to parent": 1.09
  },
  {
    "mutant": "chain 5 F5W",
    "ratio to parent": 1.15
  },
  {
    "mutant": "chain 5 E6K",
    "ratio to parent": 0.872
  },
  {
    "mutant": "chain 5 E6S",
    "ratio to parent": 0.852
  }
]
